Tested on: Plasmodium falciparum
EXPERIMENTAL PROTOCOL: Antiplasmodial activity against blood stage forms of multidrug-resistant Plasmodium falciparum Dd2 incubated for 3 days by HRP2 detection based ELISA method
Assay type: functional, organism-based
EXPERIMENTAL CONDITIONS: Dd2, 72 h
MEASUREMENT TYPE: pIC50
Keep in mind that pIC50 stands for -log10 of concentration in molar terms.

Reference set (3 entries):
>>> observed("CC(C)OC(=O)OCOP(=O)(OCOC(=O)OC(C)C)C(CCC(=O)NO)c1ccc(F)c(F)c1 (stereo not given)")
7.54
>>> observed("CC(C)OC(=O)OCOP(=O)(OCOC(=O)OC(C)C)C(CCC(=O)N(C)O)c1ccc(F)c(F)c1 (stereo not given)")
8.15
>>> observed("CC(C)OC(=O)OCOP(=O)(OCOC(=O)OC(C)C)C(CCC(=O)N(C)OC(=O)C(C)(C)C)c1ccc(F)c(F)c1 (stereo not given)")
7.47

Ask | Reported pIC50 for CCNC(=O)ON(C)C(=O)CCC(c1ccc(F)c(F)c1)P(=O)(OCOC(=O)OC(C)C)OCOC(=O)OC(C)C (stereo not given) : what is it?
Reply | 7.92

Ask | Need pIC50 of CC(C)OC(=O)OCOP(=O)(OCOC(=O)OC(C)C)C(OCC(=O)N(C)O)c1ccc(F)c(F)c1 (stereo not given) , thanks.
Reply | 7.54
